Let's go through some recorded Ki values for Somatostatin receptor type 4 (Homo sapiens) together.
Bridge positions count the residues as written; N and C are the ends. Square brackets hold non-standard residues; d marks the D form. Peptide text beside a SMILES is read from it. Phe(4-Cl) = N[C@@H](Cc1ccc(Cl)cc1)C(=O)O; 2Nal = N[C@@H](Cc1ccc2ccccc2c1)C(=O)O; d1Nal = N[C@H](Cc1cccc2ccccc12)C(=O)O; d2Nal = N[C@H](Cc1ccc2ccccc2c1)C(=O)O; 1Nal = N[CH](Cc1cccc2ccccc12)C(=O)O; Thr(ol) = C[CH](O)[CH](N)CO; Abu = CC[C@H](N)C(=O)O
Supply the numeric figure in nM, leaving out any unit text.

molecule	tgt	Ki (nM)
CC(C)[C@H](NC(=O)[C@H](CCCCN)NC(=O)[C@@H](Cc1c[nH]c2ccccc12)NC(=O)[C@H](Cc1ccc(O)cc1)NC(=O)[C@H](Cc1ccccc1)NC(=O)[C@H](N)Cc1ccccc1)C(=O)N[C@@H](Cc1ccccc1)C(=O)N[C@H](Cc1cccc2ccccc12)C(N)=O [BIM 23056] (H-[dF]FY[dW]KVF[d1Nal]-NH2)	Somatostatin receptor type 4 (Homo sapiens)	16.6
CC(C)[C@H](NC(=O)[C@H](CCCCN)NC(=O)[C@@H](Cc1c[nH]c2ccccc12)NC(=O)[C@H](Cc1ccc(O)cc1)NC(=O)[C@H](Cc1ccccc1)NC(=O)[C@H](N)Cc1ccccc1)C(=O)N[C@@H](Cc1ccccc1)C(=O)N[C@H](C(N)=O)[C@@H](C)O [BIM-23058] (H-[dF]FY[dW]KVFT-NH2)	Somatostatin receptor type 4 (Homo sapiens)	8.3
C[C@H](NC(=O)[C@H](N)Cc1ccccc1)C(=O)N[C@@H](Cc1ccccc1)C(=O)N[C@H](Cc1c[nH]c2ccccc12)C(=O)N[C@@H](CCCCN)C(=O)N[C@H](C(=O)N[C@@H](C)C(=O)N[C@H](C(N)=O)[C@@H](C)O)[C@@H](C)O [BIM 23051] (H-[dF]AF[dW]KTAT-NH2)	Somatostatin receptor type 4 (Homo sapiens)	49
CC[C@@H]1NC(=O)[C@H](CCCCN)NC(=O)[C@@H](Cc2c[nH]c3ccccc23)NC(=O)[C@H](Cc2ccc(O)cc2)NC(=O)[C@@H](NC(=O)[C@H](N)Cc2ccccc2)CSSC[C@@H](C(=O)N[C@@H](Cc2ccc3ccccc3c2)C(N)=O)NC1=O [D-Phe-Cys-Tyr-D-Trp-Lys-Abu-Cys-Nal-NH] (H-[dF]CY[dW]K[Abu]C[2Nal]-NH2; disulfide 2-7)	Somatostatin receptor type 4 (Homo sapiens)	1000
C[C@@H](O)[C@H](NC(=O)[C@H](Cc1ccccc1)NC(=O)[C@@H](NC(=O)[C@H](CCCCN)NC(=O)[C@@H](Cc1c[nH]c2ccccc12)NC(=O)[C@H](Cc1ccc(O)cc1)NC(=O)[C@H](Cc1ccc(Cl)cc1)NC(=O)[C@H](N)Cc1ccc2ccccc2c1)[C@@H](C)O)C(N)=O [CAS_150155-63-8] (H-[d2Nal][Phe(4-Cl)]Y[dW]KTFT-NH2)	Somatostatin receptor type 4 (Homo sapiens)	1000

Here is the next item to consider.
Task item: Send back Somatostatin receptor type 4 (Homo sapiens) Ki of CC(C)C1NC(=O)C(CCCCN)NC(=O)C(Cc2c[nH]c3ccccc23)NC(=O)C(Cc2ccc(O)cc2)NC(=O)C(NC(=O)C(N)Cc2cccc3ccccc23)CSSCC(C(=O)NC(CO)C(C)O)NC1=O (stereo unspecified) [DC23-60] (H-[1Nal]CYWKVC[Thr(ol)]; disulfide 2-7; configuration not given here) only.
Reply: 1000

###

Below are Ki values recorded for Somatostatin receptor type 2 (Homo sapiens, UniProt P30874).
Bridge positions count the residues as written; N and C are the ends. Square brackets hold non-standard residues; d marks the D form. Peptide text beside a SMILES is read from it. Phe(4-Cl) = N[C@@H](Cc1ccc(Cl)cc1)C(=O)O; 2Nal = N[C@@H](Cc1ccc2ccccc2c1)C(=O)O; d2Nal = N[C@H](Cc1ccc2ccccc2c1)C(=O)O
Kindly answer with a numeric value in nM, unit omitted.

molecule	tgt	Ki / nM
C[C@@H](O)[C@H](NC(=O)[C@H](Cc1ccccc1)NC(=O)[C@@H](NC(=O)[C@H](CCCCN)NC(=O)[C@@H](Cc1c[nH]c2ccccc12)NC(=O)[C@H](Cc1ccc(O)cc1)NC(=O)[C@H](Cc1ccc(Cl)cc1)NC(=O)[C@H](N)Cc1ccc2ccccc2c1)[C@@H](C)O)C(N)=O [CAS_150155-63-8] (H-[d2Nal][Phe(4-Cl)]Y[dW]KTFT-NH2)	Somatostatin receptor type 2 (Homo sapiens, UniProt P30874)	26.2
CC(C)[C@H](NC(=O)[C@H](CCCCN)NC(=O)[C@@H](Cc1c[nH]c2ccccc12)NC(=O)[C@H](Cc1ccc(O)cc1)NC(=O)[C@H](C)NC(=O)[C@H](N)Cc1ccc2ccccc2c1)C(=O)N[C@@H](C)C(=O)N[C@H](C(N)=O)[C@@H](C)O [D-Nal-Ala-Tyr-D-Trp-Lys-Val-Ala-Thr-NH2] (H-[d2Nal]AY[dW]KVAT-NH2)	Somatostatin receptor type 2 (Homo sapiens, UniProt P30874)	5.9

Could you now consider this next molecule?
Task item: State, for Somatostatin receptor type 2 (Homo sapiens, UniProt P30874), measured Ki of the molecule listed here: CC(C)[C@@H]1NC(=O)[C@H](CCCCN)NC(=O)[C@@H](Cc2c[nH]c3ccccc23)NC(=O)[C@H](Cc2ccc(O)cc2)NC(=O)[C@@H](NC(=O)[C@H](N)Cc2ccc3ccccc3c2)CSSC[C@@H](C(=O)N[C@@H](Cc2ccc3ccccc3c2)C(N)=O)NC1=O [BIM 23042] (H-[d2Nal]CY[dW]KVC[2Nal]-NH2; disulfide 2-7)
Reply: 0.24

###

- tgt: Somatostatin receptor type 2 (Homo sapiens, UniProt P30874)
- Sequence (P30874 whole entry): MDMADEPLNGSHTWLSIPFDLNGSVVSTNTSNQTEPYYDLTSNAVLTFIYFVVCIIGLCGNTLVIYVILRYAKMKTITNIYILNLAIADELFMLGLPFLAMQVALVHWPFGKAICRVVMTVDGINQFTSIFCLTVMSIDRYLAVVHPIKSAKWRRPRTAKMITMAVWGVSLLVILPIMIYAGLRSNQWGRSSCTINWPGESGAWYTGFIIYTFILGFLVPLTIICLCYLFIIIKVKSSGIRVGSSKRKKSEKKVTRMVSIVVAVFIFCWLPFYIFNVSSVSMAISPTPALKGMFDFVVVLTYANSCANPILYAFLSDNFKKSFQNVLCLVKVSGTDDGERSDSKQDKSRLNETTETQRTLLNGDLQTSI
Bridge positions count the residues as written; N and C are the ends. Square brackets hold non-standard residues; d marks the D form. Peptide text beside a SMILES is read from it. * marks the point of attachment. NH(1-naphthylmethyl) = c1ccc2c(CN*)cccc2c1
quantityName: Ki (nM)
// note: answer is a bare numeric in nM

Check out these entries, answers already filled in.
molecule	Ki [nM]
CC1NC(=O)C(CCCCN)NC(=O)C(Cc2c[nH]c3ccccc23)NC(=O)C(Cc2ccc(O)cc2)NC(=O)C(NC(=O)C(N)Cc2ccccc2)CSSCC(C(=O)NCc2cccc3ccccc23)NC1=O (centres undefined) [BIM 23034] (H-FCYWKAC-{NH(1-naphthylmethyl)}; disulfide 2-7; configuration not given here)	2.7
CC(C)[C@@H]1NC(=O)[C@H](CCCCN)NC(=O)[C@@H](Cc2c[nH]c3ccccc23)NC(=O)[C@H](Cc2ccc(O)cc2)NC(=O)[C@@H](NC(=O)[C@H](N)Cc2ccc3ccccc3c2)CSSC[C@@H](C(=O)N[C@H](C(N)=O)[C@@H](C)O)NC1=O	1.8
CC(C)[C@H](NC(=O)[C@H](CCCCN)NC(=O)[C@@H](Cc1c[nH]c2ccccc12)NC(=O)[C@H](Cc1ccc(O)cc1)NC(=O)[C@H](Cc1ccccc1)NC(=O)[C@H](N)Cc1ccccc1)C(=O)N[C@@H](Cc1ccccc1)C(=O)N[C@H](Cc1ccccc1)C(N)=O (H-[dF]FY[dW]KVF[dF]-NH2)	1000

Okay, next one:
Task item: Return Ki for the following molecule: NCCCCC1NC(=O)C(Cc2c[nH]c3ccccc23)NC(=O)C(Cc2ccc(O)cc2)NC(=O)C(NC(=O)C(N)Cc2ccccc2)CSSCC(C(=O)NCc2cccc3ccccc23)NC(=O)C(CO)NC1=O (centres undefined) [NC4-28B] (H-FCYWKSC-{NH(1-naphthylmethyl)}; disulfide 2-7; configuration not given here)
Reply: 4.4

###

As an illustration, consider measured Ki for compounds on Somatostatin receptor type 2 (Homo sapiens, UniProt P30874).
Bridge positions count the residues as written; N and C are the ends. Square brackets hold non-standard residues; d marks the D form. Peptide text beside a SMILES is read from it. dPhe(4-Cl) = N[C@H](Cc1ccc(Cl)cc1)C(=O)O; 2Nal = N[C@@H](Cc1ccc2ccccc2c1)C(=O)O; Abu = CC[C@H](N)C(=O)O
Report the value in nM with no unit label.

compound	tgt	endpointUnit	Ki
CC[C@@H]1NC(=O)[C@H](CCCCN)NC(=O)[C@@H](Cc2c[nH]c3ccccc23)NC(=O)[C@H](Cc2ccc(O)cc2)NC(=O)[C@@H](NC(=O)[C@H](N)Cc2ccccc2)CSSC[C@@H](C(=O)N[C@@H](Cc2ccc3ccccc3c2)C(N)=O)NC1=O [D-Phe-Cys-Tyr-D-Trp-Lys-Abu-Cys-Nal-NH] (H-[dF]CY[dW]K[Abu]C[2Nal]-NH2; disulfide 2-7)	Somatostatin receptor type 2 (Homo sapiens, UniProt P30874)	nM	0.024

Would you kindly look at the next entry?
Task item: Give reported Ki value for CC(C)[C@H](NC(=O)[C@H](CCCCN)NC(=O)[C@@H](Cc1c[nH]c2ccccc12)NC(=O)[C@H](Cc1ccc(O)cc1)NC(=O)[C@H](C)NC(=O)[C@H](N)Cc1ccc(Cl)cc1)C(=O)N[C@@H](C)C(=O)N[C@@H](Cc1ccc2ccccc2c1)C(N)=O [CAS_150155-67-2] (H-[dPhe(4-Cl)]AY[dW]KVA[2Nal]-NH2)
Reply: 55.5
